- System: Vesicular stomatitis virus
- experimental_details: Inhibition of Vesicular stomatitis virus induced cytopathicity in BALB/3T3 cells.
- Assay type: functional
- condition_details: in Mus musculus

{"columns": ["molecule", "MIC"],
 "data": [
  ["CCCCOC(=O)C(O)Cn1cnc2c(N)ncnc21 (stereo not drawn)", "200 µg/mL"],
  ["COC(=O)C(O)Cn1cnc2c(N)ncnc21 (stereo not drawn)", "300 µg/mL"],
  ["CCOC(=O)C(O)Cn1cnc2c(N)ncnc21 (stereo not drawn)", "> 400 µg/mL"],
  ["CCC(C)OC(=O)C(O)Cn1cnc2c(N)ncnc21 (stereo not drawn)", "> 400 µg/mL"],
  ["CC(C)(C)OC(=O)C(O)Cn1cnc2c(N)ncnc21 (stereo not drawn)", "> 400 µg/mL"],
  ["Nc1ncnc2c1ncn2CC(O)C(=O)OCCO (stereo not drawn)", "> 400 µg/mL"],
  ["Nc1ncnc2c1ncn2CC(O)C(=O)OC1CCCCC1 (stereo not drawn)", "70 µg/mL"],
  ["CC(C)CCOC(=O)C(O)Cn1cnc2c(N)ncnc21 (stereo not drawn)", "200 µg/mL"],
  ["CCCCCOC(=O)C(O)Cn1cnc2c(N)ncnc21 (stereo not drawn)", "> 200 µg/mL"],
  ["CCCOC(=O)C(O)Cn1cnc2c(N)ncnc21 (stereo not drawn)", "> 400 µg/mL"],
  ["CC(C)OC(=O)C(O)Cn1cnc2c(N)ncnc21 (stereo not drawn)", "> 400 µg/mL"],
  ["CCCCCCCCOC(=O)C(O)Cn1cnc2c(N)ncnc21 (stereo not drawn)", "100 µg/mL"],
  ["Nc1ncnc2c1ncn2C[C@H](O)CO [(S)-DHPA]", "> 400 µg/mL"]
]}

---

- Test system: Vesicular stomatitis virus
- experimental_details: Inhibition of Vesicular stomatitis virus induced cytopathicity in BALB/3T3 cells.
- Format: functional
- condition_details: in Mus musculus
Recorded MIC by entry
measure_name: MIC

{"columns": ["molecule", "recorded_value"],
 "data": [
  ["COCCOC(=O)C(O)Cn1cnc2c(N)ncnc21 (stereo not drawn)", "> 400 µg/mL"],
  ["CC(C)COC(=O)C(O)Cn1cnc2c(N)ncnc21 (stereo not drawn)", "300 µg/mL"],
  ["Nc1ncnc2c1ncn2CC(O)C(=O)OCc1ccco1 (stereo not drawn)", "> 40 µg/mL"]
]}

---

- System: Vesicular stomatitis virus
- experimental_details: Inhibition of Vesicular stomatitis virus induced cytopathicity in HeLa cells.
- Format: functional
measure_name: MIC (µg/mL)

{"columns": ["compound", "measured_target", "recorded_value"],
 "data": [
  ["Nc1ncnc2c1ncn2CC(O)C(=O)OCc1ccco1 (stereo not drawn)", "Vesicular stomatitis virus", 7],
  ["CCCCCCCCOC(=O)C(O)Cn1cnc2c(N)ncnc21 (stereo not drawn)", "Vesicular stomatitis virus", 1],
  ["CCOC(=O)C(O)Cn1cnc2c(N)ncnc21 (stereo not drawn)", "Vesicular stomatitis virus", 4],
  ["CCCCCOC(=O)C(O)Cn1cnc2c(N)ncnc21 (stereo not drawn)", "Vesicular stomatitis virus", 10],
  ["CC(C)COC(=O)C(O)Cn1cnc2c(N)ncnc21 (stereo not drawn)", "Vesicular stomatitis virus", 10],
  ["Nc1ncnc2c1ncn2CC(O)C(=O)OC1CCCCC1 (stereo not drawn)", "Vesicular stomatitis virus", 30],
  ["COCCOC(=O)C(O)Cn1cnc2c(N)ncnc21 (stereo not drawn)", "Vesicular stomatitis virus", 20],
  ["CCC(C)OC(=O)C(O)Cn1cnc2c(N)ncnc21 (stereo not drawn)", "Vesicular stomatitis virus", 30],
  ["CCCCOC(=O)C(O)Cn1cnc2c(N)ncnc21 (stereo not drawn)", "Vesicular stomatitis virus", 15],
  ["Nc1ncnc2c1ncn2CC(O)C(=O)OCCO (stereo not drawn)", "Vesicular stomatitis virus", 70],
  ["CC(C)(C)OC(=O)C(O)Cn1cnc2c(N)ncnc21 (stereo not drawn)", "Vesicular stomatitis virus", 150],
  ["COC(=O)C(O)Cn1cnc2c(N)ncnc21 (stereo not drawn)", "Vesicular stomatitis virus", 70],
  ["CC(C)OC(=O)C(O)Cn1cnc2c(N)ncnc21 (stereo not drawn)", "Vesicular stomatitis virus", 30]
]}

---

- Tested on: Measles morbillivirus
- experimental_details: Inhibition of Measles virus induced cytopathicity in vero cells.
- Type: functional
measure_name: MIC (µg/mL)

{"columns": ["compound", "limit_qualifier", "recorded_value"],
 "data": [
  ["CCCCCCCCOC(=O)C(O)Cn1cnc2c(N)ncnc21 (stereo unspecified)", "=", 70],
  ["Nc1ncnc2c1ncn2CC(O)C(=O)OC1CCCCC1 (stereo unspecified)", "=", 15],
  ["Nc1ncnc2c1ncn2C[C@H](O)CO [(S)-DHPA]", "=", 30],
  ["CCC(C)OC(=O)C(O)Cn1cnc2c(N)ncnc21 (stereo unspecified)", "=", 40],
  ["Nc1ncnc2c1ncn2CC(O)C(=O)OCCO (stereo unspecified)", "=", 30],
  ["CCCOC(=O)C(O)Cn1cnc2c(N)ncnc21 (stereo unspecified)", "=", 100],
  ["CC(C)COC(=O)C(O)Cn1cnc2c(N)ncnc21 (stereo unspecified)", "=", 40],
  ["Nc1ncnc2c1ncn2CC(O)C(=O)OCc1ccco1 (stereo unspecified)", ">", 40],
  ["CC(C)CCOC(=O)C(O)Cn1cnc2c(N)ncnc21 (stereo unspecified)", "=", 12],
  ["COCCOC(=O)C(O)Cn1cnc2c(N)ncnc21 (stereo unspecified)", "=", 400],
  ["CC(C)OC(=O)C(O)Cn1cnc2c(N)ncnc21 (stereo unspecified)", "=", 150],
  ["CCOC(=O)C(O)Cn1cnc2c(N)ncnc21 (stereo unspecified)", "=", 20],
  ["CCCCOC(=O)C(O)Cn1cnc2c(N)ncnc21 (stereo unspecified)", "=", 25],
  ["CCCCCOC(=O)C(O)Cn1cnc2c(N)ncnc21 (stereo unspecified)", "=", 70],
  ["CC(C)(C)OC(=O)C(O)Cn1cnc2c(N)ncnc21 (stereo unspecified)", "=", 150],
  ["COC(=O)C(O)Cn1cnc2c(N)ncnc21 (stereo unspecified)", "=", 40]
]}

---

Catalogue of MIC readings, one per entry.
- System: Vaccinia virus
- experimental_details: Inhibition of Vaccinia virus induced cytopathicity in PRK cells.
- Type: functional
- condition_details: Orthopoxvirus vaccinia
measure_name: MIC (µg/mL)

{"columns": ["molecule", "measure_name", "value_units", "recorded_value"],
 "data": [
  ["Nc1ncnc2c1ncn2C[C@H](O)CO [(S)-DHPA]", "MIC", "µg/mL", 30],
  ["CCCCOC(=O)C(O)Cn1cnc2c(N)ncnc21 (stereo not drawn)", "MIC", "µg/mL", 3],
  ["CCOC(=O)C(O)Cn1cnc2c(N)ncnc21 (stereo not drawn)", "MIC", "µg/mL", 3],
  ["COC(=O)C(O)Cn1cnc2c(N)ncnc21 (stereo not drawn)", "MIC", "µg/mL", 7],
  ["CCCCCCCCOC(=O)C(O)Cn1cnc2c(N)ncnc21 (stereo not drawn)", "MIC", "µg/mL", 7],
  ["COCCOC(=O)C(O)Cn1cnc2c(N)ncnc21 (stereo not drawn)", "MIC", "µg/mL", 30],
  ["CC(C)COC(=O)C(O)Cn1cnc2c(N)ncnc21 (stereo not drawn)", "MIC", "µg/mL", 3],
  ["CC(C)(C)OC(=O)C(O)Cn1cnc2c(N)ncnc21 (stereo not drawn)", "MIC", "µg/mL", 150]
]}

---

- Test system: Human respirovirus 3
- experimental_details: Inhibition of parainfluenza virus-3 induced cytopathicity in vero cells.
- Type: functional
Form field: MIC (one value per entry).
measure_name: MIC

{"columns": ["molecule", "measured_target", "measure_name", "recorded_value"],
 "data": [
  ["Nc1ncnc2c1ncn2CC(O)C(=O)OC1CCCCC1 (stereo not drawn)", "Human respirovirus 3", "MIC", "> 40 µg/mL"],
  ["CC(C)CCOC(=O)C(O)Cn1cnc2c(N)ncnc21 (stereo not drawn)", "Human respirovirus 3", "MIC", "> 200 µg/mL"],
  ["Nc1ncnc2c1ncn2CC(O)C(=O)OCCO (stereo not drawn)", "Human respirovirus 3", "MIC", "> 200 µg/mL"]
]}
